From: patent US9925166B2

Method notes: Plasma concentration after intraduodenal administration (Example 8)
Type: in vivo, Sprague-Dawley rats
Condition parameters: male, Sprague-Dawley, rat, plasma, other: intraduodenal, 30 mg/kg, 30 mg/kg intraduodenal, male rats 1, 3, 4, 5, time point 8 hr; read-out: ZGN-201 Conc. in Rat Plasma, individual animals
Endpoint: concentration at 8 hr (ng/mL)
Give bare numbers, in ng/mL.

Briefly, concentration at 8 hr measured for CO[C@@H]1[C@H](OC(=O)/C=C/C=C/C=C/C=C/C(=O)O)CC[C@]2(CO2)[C@H]1[C@@]1(C)O[C@@H]1CC=C(C)C [fumagillin] : 11.9

----------
Method notes: Plasma concentration after oral administration in a non-enterically coated capsule (Example 7)
Type: in vivo, Sprague-Dawley rats
Condition parameters: male, Sprague-Dawley, rat, plasma, oral, 30 mg/kg, 30 mg/kg capsule oral, male rats, time point 0.5 hr; read-out: ZGN-201 Conc. in Rat Plasma, Mean
Endpoint: concentration at 0.5 hr (ng/mL)
Give bare numbers, in ng/mL.

Briefly, concentration at 0.5 hr measured for CO[C@@H]1[C@H](OC(=O)/C=C/C=C/C=C/C=C/C(=O)O)CC[C@]2(CO2)[C@H]1[C@@]1(C)O[C@@H]1CC=C(C)C : 7
